Where these numbers come from: patent US20250084155A1

target: T1, HSP70 (human HSP70; the antigen of the binning, humanization and variant binding assays) (human, UniProt P0DMV8 1-641, limits assumed); experiment: BLI, anti-human Fc capture, steady state
T1 construct: also called hu HSP70
T1 sequence (P0DMV8 whole entry, change not shown): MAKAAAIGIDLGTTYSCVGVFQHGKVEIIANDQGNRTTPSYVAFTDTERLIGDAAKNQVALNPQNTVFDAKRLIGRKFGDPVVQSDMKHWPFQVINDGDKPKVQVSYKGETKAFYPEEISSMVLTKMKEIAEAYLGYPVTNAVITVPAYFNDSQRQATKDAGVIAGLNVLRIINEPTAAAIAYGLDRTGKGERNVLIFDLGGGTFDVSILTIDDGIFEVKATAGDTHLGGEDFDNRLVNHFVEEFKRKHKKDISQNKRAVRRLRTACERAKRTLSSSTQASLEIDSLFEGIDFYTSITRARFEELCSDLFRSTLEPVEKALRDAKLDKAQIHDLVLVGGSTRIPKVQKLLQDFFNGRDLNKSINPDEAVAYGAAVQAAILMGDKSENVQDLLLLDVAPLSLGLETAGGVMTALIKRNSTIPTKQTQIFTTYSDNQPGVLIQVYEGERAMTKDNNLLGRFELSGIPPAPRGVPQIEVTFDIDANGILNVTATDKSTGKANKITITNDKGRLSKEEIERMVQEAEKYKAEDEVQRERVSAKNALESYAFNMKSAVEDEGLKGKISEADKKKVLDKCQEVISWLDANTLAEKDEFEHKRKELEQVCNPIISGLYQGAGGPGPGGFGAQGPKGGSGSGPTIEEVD
KD Steady State overview
QUANTITY MEASURED: KD Steady State (nM)

INSERT INTO measurements (binder, unit_annotation, observed_result) VALUES
  ('h77A-1.59 (antibody, V domains shown, captured by anti-human Fc) VH: QIQLVQSGPEVKKPGASVKVSCKASGYTFTNYGMNWVRQAPGQGLEWMGWINTYTGEPTYGDDFKGRFTFTTDTSTSTAYMELRSLRSDDTAVYFCGRYDHAMDYWGQGTLVTVSS VL: EIVLTQSPDSLAVSLGERATINCKSSQSLLNSGTRKNYLAWYQQKAGQSPKLLIYWTSTRESGVPDRFSGSGSGTDFTLTIDRLQAEDVAVYYCKQSYTLYTFGGGTKVEIK', 'nM', 0.74),
  ('h77A-1.14 (antibody, V domains shown, captured by anti-human Fc) VH: QIQLVQSGAEVKKPGASVKVSCKASGYTFTNYGMNWVRQAPGQGLEWMGWINTYTGEPTYTDDFKGRFTFTTDTSTSTAYMELRSLRSDDTAVYFCARYDHAMDYWGQGTLVTVSS VL: EIVLTQSPDSLAVSLGERATINCKSSQSLLNSGTRKNYLAWYQQKAGQSPKLLIYWTSTRESGVPDRFSGSGSGTDFTLTIDSLQAEDVAVYYCKQSYTLYTFGGGTKVEIK', 'nM', 0.77),
  ('h77A-1.19 (antibody, V domains shown, captured by anti-human Fc) VH: QIQLVQSGAEVKKPGASVKVSCKASGYTFTNYGMNWVRQAPGQGLEWMGWINTYTGEPTYVDDFKGRFTFTTDTSTSTAYMDLRSLRSDDTAVYFCARYDHAMDYWGQGTLVTVSS VL: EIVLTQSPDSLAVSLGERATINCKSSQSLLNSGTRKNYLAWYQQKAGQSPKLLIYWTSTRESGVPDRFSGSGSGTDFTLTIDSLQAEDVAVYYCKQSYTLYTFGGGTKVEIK', 'nM', 1.2);
